# System: PfAP2-LT AP2 domain (GST-tagged)
# TEST_DETAILS: gcPBM binding intensity (ln(normalized median fluorescence intensity)); higher = stronger DNA binding
Whole data set: some 25,000 sequences, median “ln(normalized median fluorescence intensity)” near 8.9, cut for the highest 2% near 10. This is one part of a sample in which the highest values are shown more often than they occur.
Recorded gcPBM binding intensity (ln) by entry
A bare number is all that is needed in reply.

Here are 3 sequences together with their reported answers.
ENTRY_SEQUENCE: ATTCTTAAATGTGGTTGTACATATTATCACCTTTAA [XGTACX_site8188]
TARGET_OR_SYSTEM: PfAP2-LT AP2 domain (GST-tagged)
QUANTITATIVE_RESULT: 8.75

ENTRY_SEQUENCE: GGGAGGATATTACACAGTACCCAGGAAATCTACGGA [XGTACX_site4874]
TARGET_OR_SYSTEM: PfAP2-LT AP2 domain (GST-tagged)
QUANTITATIVE_RESULT: 8.81

ENTRY_SEQUENCE: TACAAAATGGGGAACACACACATATATATATATATA [CACACA_site3844]
TARGET_OR_SYSTEM: PfAP2-LT AP2 domain (GST-tagged)
QUANTITATIVE_RESULT: 10.2

Next up:
// "TATGTTTTTACGTGTGTGCACTTTGTAGAGATAAGT" : gcPBM binding intensity (ln) value = 9.06

====

# Test system: PfAP2-LT AP2 domain (GST-tagged)
# TEST_DETAILS: gcPBM binding intensity (ln(normalized median fluorescence intensity)); higher = stronger DNA binding
Whole data set: some 25,000 sequences, median “ln(normalized median fluorescence intensity)” near 8.9, cut for the highest 2% near 10. Shown is part of a subset that was picked to be rich in the highest values.
ENDPOINT: gcPBM binding intensity (ln)
Reply: number alone, nothing else.

// worked examples, gcPBM binding intensity (ln) included
ENTRY_SEQUENCE: TACAAAAGTTAAACATGTACTTAATTATATGTTTTT [XGTACX_site2852]
ENDPOINT: gcPBM binding intensity (ln)
QUANTITATIVE_RESULT: 8.57
--
ENTRY_SEQUENCE: ATAAAAATATATGAAACACACAGTTTCTATAAGAAA [CACACA_site4156]
ENDPOINT: gcPBM binding intensity (ln)
QUANTITATIVE_RESULT: 8.68

Recorded gcPBM binding intensity (ln) for ATGTAGAGTAATAGTTGTACAAGGTGTATATCTCAT [XGTACX_site6370] on PfAP2-LT AP2 domain (GST-tagged) was 9.29

GET /values?item= ACAATTTATATTATATGTACTTAAAAAGTTCGTAAA [XGTACX_site6421] &system= PfAP2-LT AP2 domain (GST-tagged) returns gcPBM binding intensity (ln): 8.47

// gcPBM binding intensity (ln) (PfAP2-LT AP2 domain (GST-tagged)) for TTAAATAAGTAATTATGTACATATAATATTCTTTAT [XGTACX_site5280] = 8.6

Query ATATATTACAATATATGTACTTAATTTGCTTAAATA [XGTACX_site7912] on PfAP2-LT AP2 domain (GST-tagged); gcPBM binding intensity (ln) returned: 8.6

The reported numbers originate from the supplement of paper PMC11417369.
